SYSTEM UNDER TEST: GlcNAc(b1-3)Gal(b1-4)GlcNAc(b1-3)[GlcNAc(b1-3)Gal(b1-4)GlcNAc(b1-3)]GalNAc
ASSAY NOTES: glycan array binding signal (z-score within array); higher = stronger binding
EXPERIMENTAL CONTEXT: glycan notation: IUPAC condensed, linker removed
The sample as a whole holds a higher share of the strongest signals than the screen did.
Known glycan array binding signal (z-score) of a selection of binders
Lab note: jot the number down without any unit.

SP15308A-bot-339-19-339 (Bacteroides ovatus) (protein) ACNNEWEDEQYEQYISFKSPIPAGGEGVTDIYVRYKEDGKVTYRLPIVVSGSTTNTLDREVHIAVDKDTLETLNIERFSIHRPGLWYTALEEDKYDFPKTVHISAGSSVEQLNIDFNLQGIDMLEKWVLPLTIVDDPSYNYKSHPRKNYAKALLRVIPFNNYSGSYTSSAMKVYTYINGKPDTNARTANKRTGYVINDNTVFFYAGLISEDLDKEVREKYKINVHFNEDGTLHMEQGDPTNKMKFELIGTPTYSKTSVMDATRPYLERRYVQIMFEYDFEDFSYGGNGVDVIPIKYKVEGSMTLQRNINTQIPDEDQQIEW: 0.148
CpGal16 (Clavelina picta) (protein) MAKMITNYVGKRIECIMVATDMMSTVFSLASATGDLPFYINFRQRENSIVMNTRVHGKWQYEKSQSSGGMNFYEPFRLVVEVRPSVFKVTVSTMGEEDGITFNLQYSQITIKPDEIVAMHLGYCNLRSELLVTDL: -0.168
MXA PilAct-eGFP (Myxococcus xanthus), Q59589 (protein) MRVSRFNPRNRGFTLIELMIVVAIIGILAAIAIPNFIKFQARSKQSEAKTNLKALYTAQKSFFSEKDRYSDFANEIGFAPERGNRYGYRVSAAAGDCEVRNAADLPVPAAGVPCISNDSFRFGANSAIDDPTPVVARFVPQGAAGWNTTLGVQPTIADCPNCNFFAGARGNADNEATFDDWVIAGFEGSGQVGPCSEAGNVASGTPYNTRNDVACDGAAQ: -0.168

Attention now shifts to the item below.
*Q* Name the recorded glycan array binding signal (z-score) for PFL (Pseudomonas fluorescens) (protein) MSKYAVANQWGGSSAPWHPGGTWVLGARDNQNVVAIEIKSGDGGKSFTGTMTYAGEGPIGFKAQRTGQNQYNVENQWGGNDAPWHPGGKWVIGGRDNQNVIALSVTSSDGGKNLSGTNTYANEGPIGFRGQIE .
*A* -0.11
